Attribution: patent US20130109682A1

molecular target: GSK3β (Homo sapiens, UniProt P49841); assay: GSK3β ATP depletion assay; type: biochemical; conditions: ATP depletion assay; read-out: GSK3b IC50
Sequence (P49841 whole entry, species assumed): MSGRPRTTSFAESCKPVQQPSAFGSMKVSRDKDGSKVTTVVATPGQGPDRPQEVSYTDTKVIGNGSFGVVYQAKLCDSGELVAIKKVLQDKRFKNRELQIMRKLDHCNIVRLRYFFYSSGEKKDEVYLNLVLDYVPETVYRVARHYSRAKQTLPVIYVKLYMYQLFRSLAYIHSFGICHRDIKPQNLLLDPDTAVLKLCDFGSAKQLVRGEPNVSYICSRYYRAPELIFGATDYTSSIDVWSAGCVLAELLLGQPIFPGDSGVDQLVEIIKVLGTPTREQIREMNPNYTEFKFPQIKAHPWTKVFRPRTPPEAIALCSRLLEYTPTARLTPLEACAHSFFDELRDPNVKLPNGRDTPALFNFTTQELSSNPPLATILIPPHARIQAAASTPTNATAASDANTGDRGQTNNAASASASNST
Quantity: IC50 (nM)

A = CC(C)[C@H]1O[C@@H](c2ccncc2NC(=O)c2ccnc(-n3c(F)cccc3=O)n2)C[C@@H](N)[C@@H]1O
B = Nc1cnc(-c2c(F)cccc2F)nc1C(=O)Nc1cnccc1[C@H]1C[C@@H](O)[C@H](O)C2(CC2)O1
C = COCCOc1cc(F)c(-c2nc(C(=O)Nc3cnccc3C3C[C@@H](N)[C@H](O)[C@@H](C(C)C)O3)ccc2F)c(F)c1 (stereo in doubt)
## Task # order the compounds above by IC50, highest value first Please reply with the labels ordered as requested. Many thanks.
## Result A, C, B
(A: 3310 nM, C: 1160 nM, B: 572 nM)
